Measured pKi of individual entries
molecular target: Glutamate receptor ionotropic, NMDA 2C (Rattus norvegicus, UniProt Q00961); assay: Ability to displace [3H]TCP from PCP receptor in tissue homogenate preparation of fresh whole rat brain minus cerebellum.; format: tissue-based
Sequence (Q00961 whole entry): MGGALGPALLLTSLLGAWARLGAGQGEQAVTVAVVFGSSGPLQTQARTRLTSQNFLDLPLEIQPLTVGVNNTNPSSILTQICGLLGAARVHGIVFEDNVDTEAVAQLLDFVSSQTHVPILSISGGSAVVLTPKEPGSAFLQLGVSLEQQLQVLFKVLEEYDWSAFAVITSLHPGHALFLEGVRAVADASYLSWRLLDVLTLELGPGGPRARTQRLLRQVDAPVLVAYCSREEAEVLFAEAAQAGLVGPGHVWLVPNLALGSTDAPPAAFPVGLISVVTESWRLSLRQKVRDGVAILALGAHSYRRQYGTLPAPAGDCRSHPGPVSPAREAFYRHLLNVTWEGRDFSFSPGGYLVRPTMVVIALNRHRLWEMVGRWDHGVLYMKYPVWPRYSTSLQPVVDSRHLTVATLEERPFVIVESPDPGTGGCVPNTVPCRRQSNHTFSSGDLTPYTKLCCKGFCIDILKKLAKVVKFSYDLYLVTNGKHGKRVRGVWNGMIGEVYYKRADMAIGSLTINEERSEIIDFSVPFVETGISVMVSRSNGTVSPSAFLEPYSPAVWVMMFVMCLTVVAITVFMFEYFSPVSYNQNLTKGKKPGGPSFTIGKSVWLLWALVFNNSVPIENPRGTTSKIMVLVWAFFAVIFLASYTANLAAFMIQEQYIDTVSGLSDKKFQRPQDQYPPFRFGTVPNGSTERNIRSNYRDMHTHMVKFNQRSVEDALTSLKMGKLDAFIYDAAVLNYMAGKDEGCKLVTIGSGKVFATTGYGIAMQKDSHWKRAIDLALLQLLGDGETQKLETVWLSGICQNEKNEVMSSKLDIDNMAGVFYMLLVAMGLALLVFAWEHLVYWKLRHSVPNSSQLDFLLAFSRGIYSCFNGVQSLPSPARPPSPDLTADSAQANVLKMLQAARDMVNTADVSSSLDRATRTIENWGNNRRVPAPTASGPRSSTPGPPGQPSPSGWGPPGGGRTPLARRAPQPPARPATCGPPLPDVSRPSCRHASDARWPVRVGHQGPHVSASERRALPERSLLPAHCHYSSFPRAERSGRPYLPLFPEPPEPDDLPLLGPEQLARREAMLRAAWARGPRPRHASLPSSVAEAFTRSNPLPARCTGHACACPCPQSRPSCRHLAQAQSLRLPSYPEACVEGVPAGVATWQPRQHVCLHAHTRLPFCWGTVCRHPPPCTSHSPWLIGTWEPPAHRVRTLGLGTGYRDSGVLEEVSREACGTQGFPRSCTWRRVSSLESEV
pKi: −log10 of the molar value.

smiles-string: Oc1cccc(C2(N3CC=CCC3)CCCCC2)c1
target-or-system: Glutamate receptor ionotropic, NMDA 2C (Rattus norvegicus, UniProt Q00961)
pKi: 8.15
//
smiles-string: C1=CCN(C2(c3cccc(OCc4ccccc4)c3)CCCCC2)CC1
target-or-system: Glutamate receptor ionotropic, NMDA 2C (Rattus norvegicus, UniProt Q00961)
pKi: 6.13
//
smiles-string: C1=CCN(C2(c3cccs3)CCCCC2)CC1
target-or-system: Glutamate receptor ionotropic, NMDA 2C (Rattus norvegicus, UniProt Q00961)
pKi: 7.92
//
smiles-string: C1=CCN(C2(c3cccc(C4OCCO4)c3)CCCCC2)CC1
target-or-system: Glutamate receptor ionotropic, NMDA 2C (Rattus norvegicus, UniProt Q00961)
pKi: 6.22
//
smiles-string: COc1cc(OC)cc(C2(N3CC=CCC3)CCCCC2)c1
target-or-system: Glutamate receptor ionotropic, NMDA 2C (Rattus norvegicus, UniProt Q00961)
pKi: 5.07
//
smiles-string: COc1cccc(C2(N3CC=CCC3)CCCCC2)c1
target-or-system: Glutamate receptor ionotropic, NMDA 2C (Rattus norvegicus, UniProt Q00961)
pKi: 7.48
//
smiles-string: O/N=C/c1cccc(C2(N3CC=CCC3)CCCCC2)c1
target-or-system: Glutamate receptor ionotropic, NMDA 2C (Rattus norvegicus, UniProt Q00961)
pKi: 7.25

----------
target: Glutamate receptor ionotropic, NMDA 2C (Rattus norvegicus, UniProt Q00961); experiment: Ability to displace [3H]- TCP from PCP receptor in tissue homogenate preparation of fresh whole rat brain minus cerebellum.; type: tissue-based
pKi: −log10 of the molar value.
Measured pKi of individual entries
metric: pKi

smiles-string: C=Cc1cccc(C2(N3CC=CCC3)CCCCC2)c1
assay-value: 6.94
--
smiles-string: Fc1cccc(C2(N3CC=CCC3)CCCCC2)c1
assay-value: 6.55
--
smiles-string: CSc1cccc(C2(N3CC=CCC3)CCCCC2)c1
assay-value: 6.64
--
smiles-string: FC(F)(F)c1cccc(C2(N3CC=CCC3)CCCCC2)c1
assay-value: 6.37
--
smiles-string: CC(=O)Oc1cccc(C2(N3CC=CCC3)CCCCC2)c1
assay-value: 8.22
--
smiles-string: Cc1cccc(C2(N3CC=CCC3)CCCCC2)c1
assay-value: 7.09
--
smiles-string: C1=CCN(C2(c3ccccc3)CCCCC2)CC1
assay-value: 7.43
--
smiles-string: COCOc1cccc(C2(N3CC=CCC3)CCCCC2)c1
assay-value: 7.04
--
smiles-string: O=Cc1cccc(C2(N3CC=CCC3)CCCCC2)c1
assay-value: 6.49
